B1: DCAF4 (parent)
chain: TTKCVRQYEGHVNEYAYLPLHVHE

# Variants of: B1
# Run description: protein stability index of a GFP-peptide fusion (GPS, HEK-293T) (PSI 1-6); higher = more stable;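 note: lentivirally expressed fusions sorted by FACS into six bins by GFP to DsRed ratio, PSI derived from sequencing read proportions per bin multiplied by bin number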
# Protocol conditions: c terminus: a fixed tail appended
Output 1.0 for protein stability index not less than 2; output 0.0 otherwise.

>  <Variant string>
E24Q

>  <Assigned label>
1.0

$$$$
>  <Variant string>
K3N

>  <Assigned label>
1.0

$$$$
>  <Variant string>
L20R

>  <Assigned label>
1.0

$$$$
>  <Variant string>
E9K

>  <Assigned label>
1.0

$$$$
>  <Variant string>
H23Q

>  <Assigned label>
1.0

$$$$
>  <Variant string>
Y17V

>  <Assigned label>
1.0

$$$$
>  <Variant string>
P19R

>  <Assigned label>
0.0

$$$$
>  <Variant string>
Y17S

>  <Assigned label>
1.0

$$$$
>  <Variant string>
T1F

>  <Assigned label>
0.0

$$$$
>  <Variant string>
G10S

>  <Assigned label>
1.0

$$$$
>  <Variant string>
E9M

>  <Assigned label>
1.0

$$$$
>  <Variant string>
G10I

>  <Assigned label>
0.0

$$$$
>  <Variant string>
C4N

>  <Assigned label>
1.0

$$$$
>  <Variant string>
A16K

>  <Assigned label>
1.0

$$$$
>  <Variant string>
T2Q

>  <Assigned label>
1.0

$$$$
>  <Variant string>
E14K

>  <Assigned label>
1.0

$$$$
>  <Variant string>
H23N

>  <Assigned label>
1.0

$$$$
>  <Variant string>
L18C

>  <Assigned label>
1.0

$$$$
>  <Variant string>
G10Y

>  <Assigned label>
1.0

$$$$
>  <Variant string>
T1P

>  <Assigned label>
1.0

$$$$
